Test system: M14 melanoma
Test: NCI-60 one-dose screen, 48 h
Conditions: 10 µM unless noted
About 83,000 compounds went through this panel and 20% of them were active in at least one assay; those are over-represented in the sample as a whole. Active and inactive are the calls of the source. Rule for the calls: active = growth percent below 10; inactive = the rest.
Please state which outcome applies, choosing from active, inactive

>>> print(df.to_string())
                                   compound     label
0  CCc1n(Cc2ccc3ccccc3c2)c2ccccc2[n+]1Cc1ccc2ccccc2c1  inactive

Returns: the outcome recorded for Cc1c(C(=O)Nc2nc3ccccc3[nH]2)cnn1-c1ccccn1 in this assay.
inactive

Which outcome was assigned to O=C1C(=O)c2c(nc3ccc(Br)cn23)-c2ccccc21 in this test?
active

Hello, I am checking results. What call was entered for COc1ccc(C(=S)c2cc(OC)c(OC)c(OC)c2)cc1OC(=O)CCl ?
inactive

Write down the call the test reported for this compound. Item: c1ccc2c3c([nH]c2c1)C(c1ccc(C2NCCc4c2[nH]c2ccccc42)cc1)NCC3 (stereo not given)
active

---

Test system: OVCAR-3 ovarian
Assay: NCI-60 one-dose screen, 48 h (100 = growth as untreated, 0 = no growth, -100 = all killed)
Conditions: 10 µM unless noted
About 83,000 compounds went through this panel and 20% of them were active in at least one assay; those are over-represented in the sample as a whole.
# growth per record follows
A number alone suffices; assume %.

                                   compound  subject_of_test  experimental_readout  value_units  value
0  C=C1C(=O)O[C@H]2[C@H]1CC/C(COC(=O)CCC(=O)OC/C1=C/CC[C@@]3(C)O[C@H]3[C@H]3OC(=O)C(=C)[C@@H]3CC1)=C\CC[C@@]1(C)O[C@@H]21  OVCAR-3 ovarian                growth            %    -11
1  CCN1CCN(c2ccc(NC(=O)Nc3nc4ccc(-c5ccccc5OC)cc4s3)cc2)CC1  OVCAR-3 ovarian                growth            %  -90.5
2  C=C1C(=O)O[C@H]2[C@H]1CC/C(COC(=O)NCc1nc3ccccc3[nH]1)=C\CC[C@@]1(C)O[C@@H]21  OVCAR-3 ovarian                growth            %     22

growth for COC(=O)c1ccc2c(c1)n(Cc1ccc3ccccc3c1)c[n+]2Cc1ccc2ccccc2c1 is 15.6

Consider CCC[S@](=O)c1ccc2nc(NC(=O)OC)[nH]c2c1 . Its measured growth is 104

Record summary for CSc1nc(-c2ccco2)c2c(N)[nH]nc2n1 : reported growth = 116

In plain terms, C=C1C(=O)O[C@H]2[C@H]1CC/C(C=Nc1c(N)cc(F)cc1Br)=C\CC[C@@]1(C)O[C@@H]21 has a documented growth of 50.9

Lookup result for CCCCN(CCCC)CC(CN(CC)CC)OC(=O)Nc1ccccc1 (stereo not drawn) ; measured growth: 108

---

Tested on: MCF7 breast
Experiment: NCI-60 one-dose screen, 48 h
Details: 10 µM unless noted
The panel holds about 83,000 compounds, 20% with a hit somewhere; the sample as a whole holds those more often. Activity calls are given as the source filed them. How the source made its calls: active means growth percent below 10; inactive means the rest.
Reply using exactly one outcome from active, inactive

Compound	Subject Of Test	Label
O=CN1N=C(c2ccc(F)cc2)CC1c1cccc(Nc2ccnc3cc(C(F)(F)F)ccc23)c1 (configuration not stated)	MCF7 breast	inactive
O=CN1N=C(c2ccc3c(c2)OCO3)CC1c1cccc(Nc2ccnc3cc(C(F)(F)F)ccc23)c1 (configuration not stated)	MCF7 breast	inactive
CC(C)(C)c1nc2c(s1)c1nc(N)ncc1c1ccc(NS(=O)(=O)c3c(F)cccc3F)c(F)c12	MCF7 breast	inactive
CCOC(=O)c1c(C(F)(F)F)n([O-])c2ccc(Cl)cc2[n+]1=O	MCF7 breast	active
CC1(C)Cc2c(Br)c(Br)c(Br)c(OCC(O)CN3CCOCC3)c2O1 (configuration not stated)	MCF7 breast	inactive

Returns: the outcome recorded for S=C(Nc1ccccc1)c1ccccn1 in this assay.
inactive

Give the logged outcome of this assay for the following compound: C=C1C(=O)O[C@H]2[C@H]1CC/C(COC(=O)CCCCCCC(=O)OC/C1=C/CC[C@@]3(C)O[C@H]3[C@H]3OC(=O)C(=C)[C@@H]3CC1)=C\CC[C@@]1(C)O[C@@H]21
inactive
